procedure_summary: ABTS radical scavenging assay
assay_conditions: mean ± SD (n = 3); NA = not active (<50% radical scavenging activity at the highest testing concentration of 200 μM); read-out: ABTS free radical scavenging activity IC50
pIC50: −log10 of the molar value.
Binary call on pIC50: y from 5 upward, n beneath that.

Example cases with answers are listed next.
In [3]: df
Out[3]:
                                   compound  label
0  O=C1O[C@H]([C@@H](O)CO)C(O)=C1O [Ascorbic acid, ascorbic acid, reference compound]      n
1  COc1cc([C@H](O)[C@@H](CO)Oc2ccc(CCCO)cc2OC)ccc1O [Compound 10a]      n
2  COc1cc(C2OC(c3ccc(O)c(OC)c3)C(CO)C2CO)ccc1O (centres unmarked) [Compound 17a, neo-olivil]      y
3  COc1cc([C@@H](O)[C@H](CO)Oc2ccc(CCCO)cc2OC)ccc1O [Compound 10b]      n

Consider the additional compound presented here.
Prompt line: Given COc1ccc([C@@H]2Oc3c(O)cc(CCCO)cc3[C@H]2CO)cc1OC [Compound 13b, 4-O-methylcedrusin] , state whether its pIC50 is at least 5.
Response line: n

###

procedure_summary: DPPH radical scavenging assay
assay_conditions: mean ± SD (n = 3); NA = not active (<50% radical scavenging activity at the highest testing concentration of 200 μM); read-out: DPPH free radical scavenging activity IC50
pIC50 listing for selected compounds.
The value called pIC50 is obtained by taking minus log10 of the concentration in mol/L.

These solved cases illustrate the format of a correct answer.
>>> df
                                   compound  quantitative_result
0  COc1cc(CCCO)ccc1O[C@@H](CO)[C@H](O)c1cc(OC)c(O)c(OC)c1 [Compound 9a]                 4.32
1  COc1cc([C@@H]2Oc3c(O)cc(CCCO)cc3[C@H]2CO)ccc1O [Compound 12b, cedrusin]                 4.35
2  COc1cc(C2OC(c3ccc(O)c(OC)c3)C(CO)C2CO)ccc1O (centres unmarked) [Compound 17b, neo-olivil]                 4.20

Prompt line: Would you mind telling me what pIC50 value was observed for COc1cc(CCCO)cc(OC)c1OC(CO)CO [Compound 22, 3-deoxyartselaenin C] ?
Response line: 4.69

###

procedure_summary: ABTS radical scavenging assay
assay_conditions: mean ± SD (n = 3); NA = not active (<50% radical scavenging activity at the highest testing concentration of 200 μM); read-out: ABTS free radical scavenging activity IC50
reported_property: pIC50
# pIC50 is unitless: minus log10 of the molar concentration; print number only

These solved cases illustrate the format of a correct answer.
>>> print(df.to_string())
                                   compound  reported_property  quantitative_result
0  COC1CC2C(O)CC(O)(COC(=O)C=Cc3ccc(O)cc3)C2C(OC)O1 (centres unmarked) [Compound 8]              pIC50                 4.41
1  COc1cc(C2OC(c3cc(OC)c(O)c(OC)c3)C(CO)C2CO)cc(OC)c1O (centres unmarked) [Compound 18a, icariol A2]              pIC50                 5.16
2  COc1cc(CCCO)ccc1O[C@@H](CO)[C@H](O)c1cc(OC)c(O)c(OC)c1 [Compound 9a]              pIC50                 5.03
3  CO[C@H]1C[C@H]2C=C[C@](O)(COC(=O)/C=C/c3ccc(O)cc3)[C@H]2[C@H](OC)O1 [Compound 7]              pIC50                 4.30

Please turn your attention to the following entry.
Prompt line: // query pIC50 value for entry COc1cc(CCCO)cc(OC)c1OC(CO)CO [Compound 22, 3-deoxyartselaenin C]
Response line: 3.77

###

procedure_summary: ABTS radical scavenging assay
assay_conditions: mean ± SD (n = 3); NA = not active (<50% radical scavenging activity at the highest testing concentration of 200 μM); read-out: ABTS free radical scavenging activity IC50
This listing pairs compounds with measured IC50.
# output: bare number, implied unit µM

Below: 2 compounds and their reported IC50.
>>> df
                                   compound  reported_property  unit_text  quantitative_result
0  COc1cc([C@@H]2Oc3c(O)cc(CCCO)cc3[C@H]2CO)ccc1O [Compound 12b, cedrusin]               IC50         µM                 12.3
1  COc1cc([C@@H](O)[C@@H](CO)Oc2ccc(CCCO)cc2OC)ccc1O [Compound 11a]               IC50         µM                 12.1

Prompt line: Need IC50, item COc1cc([C@@H]2Oc3c(OC)cc(CCCO)cc3[C@H]2CO)ccc1O [Compound 14a, dihydrodehydrodiconiferyl alcohol]
Response line: 12.3

###

procedure_summary: DPPH radical scavenging assay
assay_conditions: mean ± SD (n = 3); NA = not active (<50% radical scavenging activity at the highest testing concentration of 200 μM); read-out: DPPH free radical scavenging activity IC50
reported_property: IC50 (µM)
Numeric only. Scale: µM

Recorded results for 3 compounds are shown here.
>>> print(df.to_string())
                                   compound  quantitative_result
0  COc1cc(C2OC(c3ccc(O)c(OC)c3)C(CO)C2CO)ccc1O (stereo not shown) [Compound 17a, neo-olivil]                 40.8
1  COc1cc(C2c3c(cc(OC)c(O)c3OC)CC(CO)C2CO)cc(OC)c1O (stereo not shown) [Compound 16b, polystachyol]                 96.2
2  COc1cc([C@@H]2Oc3c(OC)cc(CCCO)cc3[C@H]2CO)cc(OC)c1O [Compound 15b]                 55.1

Read the next record carefully.
Prompt line: Endpoint output: IC50 of COc1cc(CCCO)ccc1O[C@H](CO)[C@@H](O)c1cc(OC)c(O)c(OC)c1 . Value?
Response line: 52.6

###

Entries and their pIC50
procedure_summary: ABTS radical scavenging assay
assay_conditions: mean ± SD (n = 3); NA = not active (<50% radical scavenging activity at the highest testing concentration of 200 μM); read-out: ABTS free radical scavenging activity IC50
# pIC50 is unitless: minus log10 of the molar concentration; print number only

>>> df
                                   compound  quantitative_result
0  O=C(/C=C\c1ccc(O)cc1)OC[C@@]12C[C@@H](O)[C@@H]3C[C@@H](O[C@@H](O)[C@@H]31)O2                 4.71

Prompt line: Would you mind telling me what pIC50 value was observed for O=C(/C=C/c1ccc(O)cc1)OC[C@@]12C[C@@H](O)[C@@H]3C[C@@H](O[C@@H](O)[C@@H]31)O2 ?
Response line: 4.45

Prompt line: I would be grateful if you could share the reported pIC50 for COc1ccc([C@H]2Oc3c(O)cc(CCCO)cc3[C@@H]2CO)cc1OC [Compound 13a, 4-O-methylcedrusin] .
Response line: 4.66

Prompt line: GET /values?readout=pIC50&item= CO[C@@H]1O[C@@H]2C[C@@H]3[C@H]1[C@@](COC(=O)/C=C\c1ccc(O)cc1)(C[C@H]3O)O2
Response line: 4.47

Prompt line: Consider the compound shown here: COc1cc([C@@H]2Oc3c(OC)cc(CCCO)cc3[C@H]2CO)cc(OC)c1O [Compound 15b] What is its recorded pIC50?
Response line: 4.62

Prompt line: Which pIC50 reading was recorded for the compound COc1cc([C@H]2Oc3c(O)cc(CCCO)cc3[C@@H]2CO)ccc1O [Compound 12a, cedrusin] ?
Response line: 5.02

Prompt line: Entry COc1cc(C2c3c(cc(OC)c(O)c3OC)CC(CO)C2CO)cc(OC)c1O (stereo not drawn) [Compound 16a, polystachyol] has what pIC50?
Response line: 4.96

Prompt line: Look up pIC50 for this compound: COC1OC2CC3C(O)CC(COC(=O)C=Cc4ccc(O)cc4)(O2)C13 (stereo not drawn)
Response line: 4.82

Prompt line: Look up pIC50 for this compound: COc1cc([C@@H]2Oc3c(OC)cc(CCCO)cc3[C@H]2CO)ccc1O [Compound 14b, dihydrodehydrodiconiferyl alcohol]
Response line: 4.85
